# assay overview: RP, Thermo Scientific Hypersil GOLD, 1.9 µm, 40 °C, 0.4 mL/min; A: water + 0.1% formic acid, pH 3; B: acetonitrile + 0.1% formic acid, pH 3; gradient (min/%B) 0/0 1/0 11/100 13/100 14/0 16/0
# applied conditions: stereoisomer not certain
quantity: log10(LC retention time) (log10 of the value in min)
Please keep in mind that the values are log10 of LC retention time expressed in min.

compound | observed
NC(CCSCC(N)C(=O)O)C(=O)O (configuration not stated) | -0.21

Look at each compound and report its log10(LC retention time).
1. CC(=O)NC(C(=O)O)C(C)C (racemic)
2. O=C(O)CC(=O)O [MALONATE]

Output line:
1: 0.66; 2: -0.08

====

# assay overview: RP, Thermo Scientific Hypersil GOLD, 1.9 µm, 40 °C, 0.4 mL/min; A: water + 0.1% formic acid, pH 3; B: acetonitrile + 0.1% formic acid, pH 3; gradient (min/%B) 0/0 1/0 11/100 13/100 14/0 16/0
# applied conditions: stereoisomer not certain
quantity: LC retention time (min)
Numbers only, in min.

// below: answered compounds
compound | unit info | LC retention time
Oc1ccc(C=Cc2cc(O)cc(O)c2)cc1 | min | 6.28
CC(CCCC(C)(C)O)C1CCC2C3CC=C4CC(O)CCC4(C)C3CCC12C (centres undefined) [25-HYDROXYCHOLESTEROL] | min | 11.9
Nc1ncnc2c1ncn2C1CC(O)C(CO)O1 (centres undefined) | min | 1.09

I would be grateful if you could provide LC retention time for each of the following entries.
1. OCC1OC(OCC2OC(OC3(CO)OC(CO)C(O)C3O)C(O)C(O)C2O)C(O)C(O)C1O (centres undefined)
2. NCCc1ccc(O)cc1
3. O=c1cccc[nH]1 [2-HYDROXYPYRIDINE]
4. O=C(O)c1ccc2ccccc2n1 [2-QUINOLINECARBOXYLATE]
5. Nc1nc2c(ncn2C2OC(COP(=O)(O)OP(=O)(O)OC3OC(CO)C(O)C(O)C3O)C(O)C2O)c(=O)[nH]1 (centres undefined) [GUANOSINE DIPHOSPHATE MANNOSE]

Output line:
1: 0.68; 2: 1.24; 3: 1.6; 4: 4.64; 5: 4.1

Input line: Tell me the measured LC retention time of `c1ncc2[nH]cnc2n1` , please.
Output line: 0.81

====

# assay overview: RP, Thermo Scientific Hypersil GOLD, 1.9 µm, 40 °C, 0.4 mL/min; A: water + 0.1% formic acid, pH 3; B: acetonitrile + 0.1% formic acid, pH 3; gradient (min/%B) 0/0 1/0 11/100 13/100 14/0 16/0
# applied conditions: stereoisomer not certain
Kindly supply the reported LC retention time values for the records listed here.
Give bare numbers, in min.

Worked cases, LC retention time given:
compound | LC retention time [min]
Nc1ccn(C2CC(O)C(COP(=O)([O-])OP(=O)([O-])[O-])O2)c(=O)n1 (stereo not given) [DEOXYCYTIDINE-DIPHOSPHATE] | 1.13
O=C(O)C(=O)C(=O)O [MESOXALATE] | 2.05
Cc1cc2nc3c(=O)[nH]c(=O)nc-3n(CC(O)C(O)C(O)CO)c2cc1C (stereo not given) | 5.05
O=C(O)c1ccc[nH]1 [PYRROLE-2-CARBOXYLATE] | 4.3

Attention now turns to another entry.
Input line: Name the recorded LC retention time for CC(CCC(=O)O)C1CCC2C3CCC4CC(O)CCC4(C)C3CCC12C (stereo not given) [LITHOCHOLATE] .
Output line: 10.5

====

# assay overview: RP, Thermo Scientific Hypersil GOLD, 1.9 µm, 40 °C, 0.4 mL/min; A: water + 0.1% formic acid, pH 3; B: acetonitrile + 0.1% formic acid, pH 3; gradient (min/%B) 0/0 1/0 11/100 13/100 14/0 16/0
# applied conditions: stereoisomer not certain
Kindly state LC retention time for each of the entries shown.
One number for each entry, in min.

Example results:
compound | LC retention time, min
COc1ccc2[nH]cc(CCNC(C)=O)c2c1 | 6.09
Nc1c(O)cccc1C(=O)CC(N)C(=O)O (stereo unspecified) [HYDROXYKYNURENINE] | 0.88
O=C(O)c1cccc(O)c1 [3-HYDROXYBENZOATE] | 5.04
CC(=O)NCCCNCCCCNCCCN | 0.5
O=P(O)(O)OCC1OC(O)C(O)C1O [D-RIBOSE 5-PHOSPHATE] | 0.65
NC(CCCC(=O)O)C(=O)O (stereo unspecified) [AMINOADIPATE] | 0.67
NC(N)=NCCCC(=O)O [4-GUANIDINOBUTANOATE] | 0.84
Cc1ccccc1C(=O)NCC(=O)O | 5.31

Here are 5 compounds. What values of LC retention time were reported for them?
1. Cc1ncc(COP(=O)(O)O)c(C=O)c1O [PYRIDOXAL-PHOSPHATE]
2. NCCc1c[nH]c2ccccc12
3. Cc1cccnc1
4. O=C(O)CNC(=O)c1ccccc1O [o-Hydroxyhippuric acid]
5. C[n+]1cccc(C(=O)[O-])c1

Output line:
1: 0.83; 2: 4.7; 3: 0.82; 4: 5.5; 5: 0.69

====

# assay overview: RP, Thermo Scientific Hypersil GOLD, 1.9 µm, 40 °C, 0.4 mL/min; A: water + 0.1% formic acid, pH 3; B: acetonitrile + 0.1% formic acid, pH 3; gradient (min/%B) 0/0 1/0 11/100 13/100 14/0 16/0
# applied conditions: stereoisomer not certain
quantity: LC retention time

Some solved entries appear below for comparison.
molecule | quantity | observed
Nc1ncnc2c1ncn2C1OC(COP(=O)(O)O)C(O)C1O (stereo not drawn) [ADENOSINE-MONOPHOSPHATE] | LC retention time | 0.77 min
O=Cc1cccc(O)c1 [3-HYDROXYBENZALDEHYDE] | LC retention time | 5.4 min
Nc1ccn(C2CC(O)C(COP(=O)(O)O)O2)c(=O)n1 (stereo not drawn) [DEOXYCYTIDINE MONOPHOSPHATE] | LC retention time | 0.74 min
Nc1ncnc2c1ncn2C1OC(CO)C(O)C1O (stereo not drawn) | LC retention time | 0.86 min
NC(=O)c1ccc[n+](C2OC(COP(=O)(O)OP(=O)(O)OCC3OC(n4cnc5c(N)ncnc54)C(OP(=O)(O)O)C3O)C(O)C2O)c1 (stereo not drawn) | LC retention time | 4.21 min
O=C(O)/C=C/c1c[nH]c2ccccc12 [trans-3-indoleacrylic acid] | LC retention time | 6.57 min
Cc1cn(C2CC(O)C(COP(=O)(O)O)O2)c(=O)[nH]c1=O (stereo not drawn) [THYMIDINE-MONOPHOSPHATE] | LC retention time | 0.82 min
NC(=O)c1ccc[n+](C2OC(COP(=O)(O)OP(=O)(O)OCC3OC(n4cnc5c(N)ncnc54)C(O)C3O)C(O)C2O)c1 (stereo not drawn) [BETA-NICOTINAMIDE ADENINE DINUCLEOTIDE] | LC retention time | 0.78 min
CSCC1OC(n2cnc3c(N)ncnc32)C(O)C1O (stereo not drawn) | LC retention time | 4.41 min
NC(=O)c1ncn(C2OC(COP(=O)(O)O)C(O)C2O)c1N (stereo not drawn) | LC retention time | 0.76 min

For every item below, please supply its LC retention time.
1. Nc1ccc(C(=O)O)cn1
2. CC(=O)NCCc1c[nH]c2ccc(O)cc12
3. CC(=O)N[C@@H](Cc1ccc(O)cc1)C(=O)O
4. O=C([O-])CCc1ccccc1O [3-(2-HYDROXYPHENYL)PROPANOATE]
5. Nc1nc2c(c(=O)[nH]1)N=C(CNc1ccc(C(=O)NC(CCC(=O)O)C(=O)O)cc1)CN2 (stereo not drawn) [DIHYDROFOLATE]
6. O=C(O)C(=O)Cc1c[nH]c2ccccc12 [INDOLE-3-PYRUVATE]
7. O=C1C=CC(=O)N1 [MALEIMIDE]
8. NCC(O)c1ccc(O)c(O)c1 (stereo not drawn)

Output line:
["0.87 min", "4.86 min", "4.56 min", "5.92 min", "4.54 min", "6 min", "0.84 min", "0.65 min"]

====

Give measured log10 of LC retention time for each item. Keep answers brief.
# assay overview: RP, Thermo Scientific Hypersil GOLD, 1.9 µm, 40 °C, 0.4 mL/min; A: water + 0.1% formic acid, pH 3; B: acetonitrile + 0.1% formic acid, pH 3; gradient (min/%B) 0/0 1/0 11/100 13/100 14/0 16/0
# applied conditions: stereoisomer not certain
Field: value | Transform: log10 | Quantity: LC retention time | Unit: min

Known results for compounds:
compound | observed
N[C@@H](Cc1ccc(O)c([N+](=O)[O-])c1)C(=O)O | 0.58
Cn1c(=O)[nH]c2ncn(C)c2c1=O | 0.64
NC1(C(=O)O)CC1 [1-AMINOCYCLOPROPANECARBOXYLATE] | -0.19
O=C[C@H](O)[C@H](O)CO [D-(-)-Erythrose] | -0.15
COc1cc(C=CC(=O)O)ccc1O [FERULATE] | 0.75
COC1=C(OC)C(=O)C(CC=C(C)C)=C(C)C1=O | 0.96

Hey, quick one: what's log10 of LC retention time for each of these?
1. NC(=O)C[C@H](N)C(=O)O
2. CCCCCCCCCCCC(=O)OC(CC(=O)[O-])C[N+](C)(C)C (stereo unspecified)
3. NC(=O)c1cccnc1 [NICOTINAMIDE]
4. O=c1cccc(O)[nH]1 [2-6-DIHYDROXYPYRIDINE]
5. O=C([O-])C(O)C(O)C(=O)[O-] (stereo not drawn) [MESO-TARTRATE]

Output line:
-0.21
0.94
-0.08
0.04
-0.15
